Below, each entry is listed with its recorded apparent KD of MS2 coat protein.
Test system: MS2 coat protein
Test: apparent KD of MS2 coat protein; higher = weaker reporter binding
Conditions: Eterna round: R107; input ligand: arginine 13.2 mM
// return the numeric value with its unit appended

AAUUAAACAUCGGCCGCCACUUACUCAUGAGGUAACAACAUGAGGAUCACCCAUGUUUGAGGAUCAAGGACCGGGAUGUAAUUUU [AstrosSSTryB#3]
28 nM
GGGUACAUCGCGGCCGCCACUCAUGUAAAUACAUGAGGAUCACCCAUGUCGAUGGAGACAUCGGAGAGGACCGGGCGAUGUACCG
224 nM
AUACAUGAGGAUCACCCAUGUAUAGUUGAAGGAGCGACCAGAGGGUCAGGUAGGUCGCAACACAUGAGGAUCACCCAUGUAUCGA [DOUBLE!!! :-D #7]
30 nM

Result for AAGGUGAUCCCAGAUACCAGCCUAACAUGAGGAUCACCCAUGUUUGGGACGAAAGUCCCAGGCCCUUGGCAGCUGGGUUGCCAAG [SSTheo B #17] , tested on MS2 coat protein, apparent KD of MS2 coat protein: 48.8 nM

Measured apparent KD of MS2 coat protein (MS2 coat protein), entry GGGAGGUAGGCGGCCGCCACUGAUUUUCAUAUAUAUAUAACAUGAGGAUCACCCAUGUAGAUAUGCAGGACCGGGCCUGUUUUUU [aaaK] : 18.8 nM

Considering CGAUCUUUCGAAAGAAGGAUCUUGUCUGAUACCAGAGACGAAAGUCUCCCUUGGCAGCAGUGCCAACAUGAGGAUCACCCAUGUU [Theophylline A 11] , its apparent KD of MS2 coat protein with MS2 coat protein was recorded as 16 nM
